Taken from PubChem BioAssay (Tox21).

# PROCEDURE SUMMARY: p53 small molecule agonists, cell-based qHTS assay (AID 1963582)
# STUDY CONDITIONS: HCT-116 p53RE-bla reporter, beta-lactamase FRET ratio, 16 h; series mostly up to 66 µM
Records with an inconclusive call do not appear. Calls of active or inactive are those of the source. The call rests on the fitted dose curve; in most records, active means well fitted activation curve with a large enough effect in the signal ratio in the repeat runs (not every such curve was filed as active); inconclusive means weak or mixed curves; inactive means flat fitted curve, though single readings scatter; the % refers to the signal ratio.
MEASURE: outcome

COMPOUND: COCCC#N
OBSERVED VALUE: inactive
//
COMPOUND: Cc1ccc2ccccc2c1
OBSERVED VALUE: inactive
//
COMPOUND: c1ccc2c(c1)sc1ccccc12
OBSERVED VALUE: inactive
//
COMPOUND: CC1=C(C(=O)Nc2ccccc2)SCCO1
OBSERVED VALUE: inactive
//
COMPOUND: O=[N+]([O-])c1ccc([As](=O)(O)O)cc1
OBSERVED VALUE: inactive
//
COMPOUND: Nc1ccc(Br)cc1
OBSERVED VALUE: inactive
//
COMPOUND: [N-]=[N+]=CC(=O)OC[C@H](N)C(=O)O
OBSERVED VALUE: inactive
//
COMPOUND: CC(C)N1C(=O)c2ccccc2NS1(=O)=O
OBSERVED VALUE: inactive
//
COMPOUND: C#CCO
OBSERVED VALUE: inactive
//
COMPOUND: Cc1ccc(O)c(C)c1
OBSERVED VALUE: inactive
//
COMPOUND: CCC[N+](=O)[O-]
OBSERVED VALUE: inactive
//
COMPOUND: OC(O)C(Cl)(Cl)Cl
OBSERVED VALUE: inactive
//
COMPOUND: COc1ccc(N)cc1
OBSERVED VALUE: inactive
//
COMPOUND: CCN(CC)CCO
OBSERVED VALUE: inactive
//
COMPOUND: COC(=O)c1cncn1C(C)c1ccccc1 (configuration not stated)
OBSERVED VALUE: inactive
//
COMPOUND: CCN(C)N=O
OBSERVED VALUE: inactive
//
COMPOUND: Clc1ccc(Cl)c(Cl)c1
OBSERVED VALUE: inactive
//
COMPOUND: ClCCBr
OBSERVED VALUE: inactive
//
COMPOUND: Cn1cc(-c2ccccc2)c(=O)c(-c2cccc(C(F)(F)F)c2)c1
OBSERVED VALUE: inactive
//
COMPOUND: CCCC1CCCCN1 (configuration not stated)
OBSERVED VALUE: inactive
//
COMPOUND: CC(C)CCCCCCOC(=O)c1ccccc1C(=O)OCCCCCCC(C)C
OBSERVED VALUE: inactive
//
COMPOUND: Nc1ccc2ccccc2c1
OBSERVED VALUE: inactive
//
COMPOUND: ClCC1CO1 (configuration not stated)
OBSERVED VALUE: inactive
//
COMPOUND: ClCC(Br)CBr (configuration not stated)
OBSERVED VALUE: inactive
//
COMPOUND: CC(C)CON=O
OBSERVED VALUE: inactive
//
COMPOUND: CCOS(C)(=O)=O
OBSERVED VALUE: inactive
//
COMPOUND: CC(C)(C)OOC(C)(C)C
OBSERVED VALUE: inactive
//
COMPOUND: CN(C)P(=O)(N(C)C)N(C)C
OBSERVED VALUE: inactive
//
COMPOUND: O=C(O)COc1ccc(Cl)cc1Cl
OBSERVED VALUE: inactive
//
COMPOUND: CS(=O)(=O)NC(=O)c1cc(Oc2ccc(C(F)(F)F)cc2Cl)ccc1[N+](=O)[O-]
OBSERVED VALUE: inactive
//
COMPOUND: Cc1cc(Cl)ccc1OC(C)C(=O)O (configuration not stated)
OBSERVED VALUE: inactive
//
COMPOUND: CCC(C)Cl (configuration not stated)
OBSERVED VALUE: inactive
//
COMPOUND: Oc1ccc(Cl)cc1Cl
OBSERVED VALUE: inactive
//
COMPOUND: CCOP(=S)(OCC)SCSC(C)(C)C
OBSERVED VALUE: inactive
//
COMPOUND: CC(C)(C)C(=O)Cl
OBSERVED VALUE: inactive
//
COMPOUND: N#Cc1ccccc1N
OBSERVED VALUE: inactive
//
COMPOUND: ClC(Cl)(Cl)c1ccccc1
OBSERVED VALUE: inactive
//
COMPOUND: C/C=C/CC#N
OBSERVED VALUE: inactive
//
COMPOUND: CCCCCCCCCCBr
OBSERVED VALUE: inactive
//
COMPOUND: O=[N+]([O-])c1ccc(Cl)cc1
OBSERVED VALUE: inactive
//
COMPOUND: CCCCCCCCCCCCCCCl
OBSERVED VALUE: inactive
//
COMPOUND: CNC(=O)NC(O)C(Cl)(Cl)Cl (configuration not stated)
OBSERVED VALUE: inactive
//
COMPOUND: Oc1ccc(Cl)cc1
OBSERVED VALUE: inactive
//
COMPOUND: Cc1cccc(C)c1NC(=O)CN1CCCC1=O
OBSERVED VALUE: inactive
//
COMPOUND: N#CC1(N=NC2(C#N)CCCCC2)CCCCC1
OBSERVED VALUE: inactive
//
COMPOUND: CCCCOC(=O)c1ccccc1C(=O)OCCCC
OBSERVED VALUE: inactive
//
COMPOUND: O=NN1CCCCCCC1
OBSERVED VALUE: inactive
//
COMPOUND: C[C@]12CCC(=O)C[C@@H]1CC[C@@H]1[C@@H]2CC[C@]2(C)[C@@H](O)CC[C@@H]12
OBSERVED VALUE: inactive
//
COMPOUND: C=CCN1CC[C@]23CCCC[C@H]2[C@H]1Cc1ccc(O)cc13
OBSERVED VALUE: inactive
//
COMPOUND: CCNc1nc(NC(C)(C)C)nc(SC)n1
OBSERVED VALUE: inactive
//
COMPOUND: CNC(=O)Oc1ccccc1C1OCCO1
OBSERVED VALUE: inactive
//
COMPOUND: CC(C)(Cl)Cl
OBSERVED VALUE: inactive
//
COMPOUND: COc1ccc(C(O)(c2cncnc2)C2CC2)cc1 (configuration not stated)
OBSERVED VALUE: inactive
//
COMPOUND: CN(C)C(=O)Nc1ccc(Cl)cc1
OBSERVED VALUE: inactive
//
COMPOUND: CNC(=O)Oc1ccccc1OC(C)C
OBSERVED VALUE: inactive
//
COMPOUND: COc1cc(OC)nc(Sc2cccc(Cl)c2C(=O)O)n1
OBSERVED VALUE: inactive
//
COMPOUND: S=C=S
OBSERVED VALUE: inactive
//
COMPOUND: OCCCCO
OBSERVED VALUE: inactive
//
COMPOUND: COc1ccccc1OC
OBSERVED VALUE: inactive
//
COMPOUND: Cn1cc[n+](C)c1 (tested in a mixture with another compound)
OBSERVED VALUE: inactive
//
COMPOUND: CCCCCCCCCl
OBSERVED VALUE: inactive
//
COMPOUND: CC(=O)C(Cl)Cl
OBSERVED VALUE: inactive
//
COMPOUND: Cc1cc(N=Nc2ccccc2C)ccc1N
OBSERVED VALUE: inactive
//
COMPOUND: CCNc1nc(NC(C)C)nc(OC)n1
OBSERVED VALUE: inactive
//
COMPOUND: C=CC(C)=O
OBSERVED VALUE: inactive
//
COMPOUND: Cc1cccc(N)c1C
OBSERVED VALUE: inactive
//
COMPOUND: CCCCN(CCCC)N=O
OBSERVED VALUE: inactive
